System: M14
Assay: NCI tumour cell line growth inhibition, 48 h
The source made the active and inactive calls. Rule as the data show it: active = GI50 up to about 1.1 µM and inactive = higher.
Recorded metric: GI50

Incoming: Field: GI50 (M14). Entry: CCOC(=O)c1c(-c2ccccc2)c(OC)cn1C
Outgoing: > 10 µM (inactive)

###

System: UO-31
Test: NCI tumour cell line growth inhibition, 48 h
Activity calls are given as the source filed them. Cut-off read from the data, not from the text of the source: active = GI50 up to about 1.1 µM and inactive = higher.
Just give me one of these, please: active, inactive

Look over these answered cases.
| Compound | Classification |
| --- | --- |
| CNC(=O)CN(CC(N)=O)C(=O)NC | inactive |
| O=C(NCCCCCCNC(=O)n1cc(F)c(=O)[nH]c1=O)NCCCOCCOCCCNC(=O)C(O)C(O)C(O)C(O)CO (configuration not stated) | inactive |
| O=C1CCCC/C1=C\c1ccc(Br)cc1 | inactive |
| COC(=O)C1=CC2CCCC1(O)C(C(C)=O)C2 (configuration not stated) | inactive |
| COc1ccc2c(c1)CCN1C3=C(CCC3)C(=O)C[C@@H]21 | inactive |

Incoming: Record request — test call for O1C2C1C1OC1C1OC1C1OC21 (configuration not stated)
Outgoing: inactive

Incoming: Please give the result for Cc1nc2sc(CCl)nn2c(=O)c1Cl too.
Outgoing: inactive

Incoming: Please give the result for COc1ccc(N2C(=O)C3c4[nH]c5ccccc5c4C4CCCCC4C3C2=O)cc1 (configuration not stated) too.
Outgoing: inactive

Incoming: Please give the result for CCN(CC)CCn1ncc2ccc3c(c(=O)c4cccnc4n3CCN(CC)CC)c21 too.
Outgoing: inactive

Incoming: Please give the result for O=S(=O)(O)c1cccc2c(/N=N/c3c(O)ccc4ccccc34)cccc12 too.
Outgoing: inactive

###

Test system: UACC-62
Experiment: NCI tumour cell line growth inhibition, 48 h
Activity calls are given as the source filed them. No stated cut-off is given here; in the data, active = GI50 up to about 1.1 µM and inactive = higher.
Just give me one of these, please: active, inactive

| Compound | Assayed system | Classification |
| --- | --- | --- |
| CCN(CC)c1ccc2cc(C(=O)Nc3ccc4[nH]c(C(=O)N5C[C@@H](CCl)c6c5cc(OC(=O)Nc5ccccc5)c5[nH]cc(C)c65)cc4c3)oc2c1 [CARZELESIN] | UACC-62 | active |
| COC(=O)CC(c1ccccc1)C(C#N)(OP1(=O)OC(c2ccccc2)C(C)N1C)c1ccccc1 (stereo not given) | UACC-62 | inactive |
| COc1ccc(C2Oc3cc(OC)c(O)c(C)c3[C@H]2C)cc1 (stereo not given in full) | UACC-62 | inactive |
| Cc1cc2ccccc2c[n+]1CC(=O)CC([O-])(C(F)(F)F)C(F)(F)F | UACC-62 | inactive |
| N#CC1(c2ccccc2)CCN(C2(c3ccccc3)CCCCC2)CC1 | UACC-62 | inactive |
| C[C@]12C=CC(=O)C=C1CC[C@@H]1[C@@H]2CC[C@]2(C)OC(=O)CC[C@@H]12 [TESTOLACTONE] | UACC-62 | inactive |

Incoming: Record request — test call for COc1ccc(-c2c(C#N)c(N)nc3c2CCS(=O)(=O)c2ccccc2-3)cc1
Outgoing: inactive

Incoming: Please give the result for CCOC(C[C@H](O)[C@H]1COC(=S)S1)OCC too.
Outgoing: inactive

Incoming: Please give the result for O=C1NCCCc2nonc21 too.
Outgoing: inactive

Incoming: Please give the result for COc1ccc(/C(Cl)=C(/c2ccc(O)cc2)c2ccc(OCCN(C)C)cc2)cc1 too.
Outgoing: inactive

###

Test system: UACC-257
Assay: NCI tumour cell line growth inhibition, 48 h
The source made the active and inactive calls. Rule as the data show it: active = GI50 up to about 1.1 µM and inactive = higher.
Just give me one of these, please: active, inactive

Look over these answered cases.
| Molecule | Classification |
| --- | --- |
| COC(=O)[C@@H]1[C@H](O)CC[C@H]2[C@@]1(C)CC[C@@H](C)[C@]2(COC(C)=O)CC(=O)c1ccoc1 | inactive |
| O=C1C(Cl)=C(N2CCN(c3ccccn3)CC2)C(=O)c2c(O)ccc(O)c21 | inactive |
| O=C(Nc1ccn(C2CC(I)C(COC(c3ccccc3)(c3ccccc3)c3ccccc3)O2)c(=O)n1)c1ccccc1 (configuration not stated) | inactive |
| Cc1nc2sc(CCl)nn2c(=O)c1Cl | inactive |
| CC1(C)CCC[C@@]2(C)C1CC[C@@]1(CO1)[C@@H]2/C=C\C(C=O)CC=O (some centres not stated) | inactive |
| COC(=O)C12C3C4C5(C(=O)OC)C(C1C35C(=O)N(C(C)C)C(C)C)C42C(=O)N(C(C)C)C(C)C (configuration not stated) | inactive |

Incoming: Record request — test call for COCCNC(=O)C1C(=O)C(=O)N(CCOC)C1=O (configuration not stated)
Outgoing: inactive

Incoming: Please give the result for Cc1cc(N(CCC#N)CCC#N)ccc1/C=N/NC(=O)c1ccccc1 too.
Outgoing: inactive

Incoming: Please give the result for Cn1c(-c2cccs2)cc(-c2cccs2)c1-c1ccsc1 too.
Outgoing: inactive

Incoming: Please give the result for COC(=O)C1=C(C(=O)OC)SC(=C2c3ccsc3-c3sccc32)S1 too.
Outgoing: inactive

Incoming: Please give the result for O=C1CC(Nc2ccccc2)c2c(Cl)sc(Cl)c21 (configuration not stated) too.
Outgoing: inactive

Incoming: Please give the result for C[C@]12CC[C@H](O)CC1=CC[C@@H]1C2CC[C@]2(C)Nc3c(cnn3-c3ccc(F)cc3)CC12 (some centres not stated) too.
Outgoing: inactive

###

Tested on: TK-10
Assay: NCI tumour cell line growth inhibition, 48 h
Activity calls are given as the source filed them. Rule as the data show it: active = GI50 up to about 1.1 µM and inactive = higher.
Just give me one of these, please: 1 (active), 0 (inactive)

Look over these answered cases.
| Molecule | Classification |
| --- | --- |
| Cn1c(=O)[nH]c2[nH]c3ccccc3c2c1=O | 0 |
| COc1ccc(C2Oc3cc(OC)c(O)c(C)c3[C@H]2C)cc1 (some centres undefined) | 0 |
| O=C(/C=C/c1ccccc1)Nc1ccccc1SCCCCl | 0 |
| O=C1C=C(OCCCCl)C(=O)c2c(O)ccc(O)c21 | 0 |
| CN(C)CCCNC(=O)c1cc(NC(=O)CCCn2c3ccccc3c3ccccc32)cn1C | 0 |

Incoming: Record request — test call for O=c1c2ccc(Cl)cc2oc2c(CNc3ccc(S(=O)(=O)Nc4nccs4)cc3)cccc12
Outgoing: 0

###

System: DLD-1
Test: NCI tumour cell line growth inhibition, 48 h
The source made the active and inactive calls. Rule as the data show it: active = GI50 up to about 1.1 µM and inactive = higher.
Just give me one of these, please: active, inactive

Look over these answered cases.
| Compound | Assayed system | Classification |
| --- | --- | --- |
| CC(=O)Nc1ccc(/C=c2\sc3nnc(CCC(=O)Nc4ccccc4Cl)n3c2=O)cc1 | DLD-1 | inactive |
| CCN(CC)CCC(=O)/C=C/c1ccc(C)cc1 | DLD-1 | inactive |
| CC(=O)/C=C/c1c[nH]c(=O)[nH]c1=O | DLD-1 | inactive |
| CC(C)CC(NC(=O)OC(C)(C)C)C(=O)Nc1ccc(Nc2nc(F)nc(-c3c4ccccc4c4n3CCS4)n2)cc1 (centres undefined) | DLD-1 | inactive |

Incoming: Record request — test call for COc1ccc(-c2cc(-c3ccccc3)c(C#N)c(=O)n2C2OC(CO)C(O)C(O)C2O)cc1 (centres undefined)
Outgoing: inactive

Incoming: Please give the result for CC1=C/C(=C2/N=C(N(C)C)SS2)C(C)=N1.[O-][Cl+3]([O-])([O-])O too.
Outgoing: inactive

Incoming: Please give the result for C/C(=N\NC(=S)N1CCN(c2ccccn2)CC1)c1ncccn1 too.
Outgoing: active

Incoming: Please give the result for COC(=O)C12C3C4C5(C(=O)OC)C(C1C35C(=O)N(C(C)C)C(C)C)C42C(=O)N(C(C)C)C(C)C (centres undefined) too.
Outgoing: inactive

Incoming: Please give the result for C[C@]12CCC3[C@@H](CC[C@@H]4c5nonc5CC[C@]34C)C1CC[C@@H]2O (some centres undefined) too.
Outgoing: inactive

###

System: UO-31
Test: NCI tumour cell line growth inhibition, 48 h
Active and inactive are the calls of the source. Rule as the data show it: active = GI50 up to about 1.1 µM and inactive = higher.
Recorded metric: GI50

| Compound | GI50 |
| --- | --- |
| Nc1c(C(=O)Nc2ccc([As](=O)(O)O)cc2)cnc2nnnn12 | > 100 µM (inactive) |
| COc1ccccc1NC(=O)/C(Cc1nc2ccc([N+](=O)[O-])cc2nc1O)=N\NC(=O)C[N+](C)(C)C | 25.7 µM (inactive) |
| OB(O)c1ccccc1C#Cc1ccccc1B(O)O | 20.3 µM (inactive) |
| O=C(NNC(=O)c1ccccc1Cl)c1ccccc1O | 27.7 µM (inactive) |
| CCNc1ncnc2sc(SCc3ccccc3)nc12 | 36.8 µM (inactive) |
| CCOC(=O)C(NC(=O)c1nc[nH]c1[N+](=O)[O-])C(C)C (configuration not stated) | > 100 µM (inactive) |
| N#CC(c1ccccc1)c1nc2ccc(N)cc2[n+]([O-])c1C(C#N)c1ccccc1 (configuration not stated) | 68.2 µM (inactive) |
| CC(=O)NC(CCCNCc1ccccc1)C(=O)NCc1ccccc1 (configuration not stated) | > 100 µM (inactive) |
| Cc1n[n+](Cc2ccccc2)c2sc(N)nn12 | > 100 µM (inactive) |
| CC1=C2C(=CO[C@H](C)[C@H]2C)C(O)=C(C(=O)O)C1=O | 48.3 µM (inactive) |

Incoming: Field: GI50 (UO-31). Entry: CS(=O)(=O)c1nc(N)nc2nc[nH]c12
Outgoing: > 100 µM (inactive)

Incoming: Please give the result for O=C(O)C(CS)Nc1c2ccccc2[n+]([O-])c2ccccc12 (configuration not stated) too.
Outgoing: 49.8 µM (inactive)

Incoming: Please give the result for CCCCCCCCCCCCCCCCOP(=O)(O)OP(=O)(O)OCC1OC(n2cnc3c(N)ncnc32)C(O)C1O (configuration not stated) too.
Outgoing: 60.5 µM (inactive)

Incoming: Please give the result for CN(c1c(Cl)cccc1Cl)S(=O)(=O)c1ccccc1[N+](=O)[O-] too.
Outgoing: > 100 µM (inactive)

Incoming: Please give the result for COc1cc(-c2cc(=O)c3cc(C)c(C)c(C(=O)O)c3o2)cc(OC)c1OC too.
Outgoing: > 100 µM (inactive)

Incoming: Please give the result for Cc1ccccc1/N=N/c1c(-c2ccccc2)nn(C(=O)CC(=O)Nc2cccc(Cl)c2)c1-c1ccccc1 too.
Outgoing: 14.5 µM (inactive)

Incoming: Please give the result for CCOC(=O)C1=CN/C(=C(/C)C(=O)OC)SC1C(=O)OCC (configuration not stated) too.
Outgoing: > 78.5 µM (inactive)

Incoming: Please give the result for O=[N+]([O-])c1cc2ncc(-c3ccccc3)c(O)c2cc1/C(Cl)=C/c1ccccc1 too.
Outgoing: 9.89 µM (inactive)

Incoming: Please give the result for Cn1ccnc1Oc1ccc(Cl)cc1 too.
Outgoing: 11.7 µM (inactive)
